Target: T1, biotinylated goat anti-human kappa light chain
T1 construct: Positive control of the ELISA
Assay: ELISA; positive control; further: test concentration or dose not given here

BINDER	READING_UNIT	optical density
376_D11 (antibody, V domains shown, VH/VL only) VH: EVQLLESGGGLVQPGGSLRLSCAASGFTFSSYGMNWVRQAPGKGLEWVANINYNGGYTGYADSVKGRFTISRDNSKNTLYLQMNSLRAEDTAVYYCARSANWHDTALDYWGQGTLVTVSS VL: DIQMTQSPSSLSASVGDRVTITCRASQSILSYLNWYQQKPGKAPKLVIYAATSRASGVPSRFSGSGSGTDFTLTISSLQPEDFATYYCQQSYNNPLTFGGGTKVEIK	OD	3.43
374_B09 (antibody, V domains shown, VH/VL only) VH: EVQLLESGGGLVQPGGSLRLSCAASGFTFSSYSMNWVRQAPGKGLEWVSGINYNGGYKSYADSVKGRFTISRDNSKNTLYLQMNSLRAEDTAVYYCARSATWHDTHLDYWGQGTLVTVSS VL: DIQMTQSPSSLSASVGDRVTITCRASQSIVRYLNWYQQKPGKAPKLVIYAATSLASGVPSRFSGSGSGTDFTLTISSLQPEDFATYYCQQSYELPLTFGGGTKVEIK	OD	3.19
369_B09 (antibody, V domains shown, VH/VL only) VH: EVQLLESGGGLVQPGGSLRLSCAASGFTFDSYGMHWVRQAPGKGLEWVASINYNGGYTSYADSVKGRFTISRDNSKNTLYLQMNSLRAEDTAVYYCARSATWHDTHLDYWGQGTLVTVSS VL: DIQMTQSPSSLSASVGDRVTITCRASQSILTYLNWYQQKPGKAPKLLIYAATSRASGVPSRFSGSGSGTDFTLTISSLQPEDFATYYCQQSYENPLTFGGGTKVEIK	OD	2.22
366_A05 (antibody, V domains shown, VH/VL only) VH: EVQLLESGGGLVQPGGSLRLSCAASGFTFSSYSMNWVRQAPGKGLEWVAGINYNSGYTGYADSVKGRFTISRDNSKNTLYLQMNSLRAEDTAVYYCARSATWHDTHLDYWGQGTLVTVSS VL: DIQMTQSPSSLSASVGDRVTITCRASQSILTYVNWYQQKPGKAPKLVIYAATSLASGVPSRFSGSGSGTDFTLTISSLQPEDFATYYCQQSYNTPLTFGGGTKVEIK	OD	3.48
370_F08 (antibody, V domains shown, VH/VL only) VH: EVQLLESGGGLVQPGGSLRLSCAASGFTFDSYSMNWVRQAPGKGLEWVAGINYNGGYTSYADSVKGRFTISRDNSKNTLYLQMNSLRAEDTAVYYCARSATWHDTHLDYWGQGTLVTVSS VL: DIQMTQSPSSLSASVGDRVTITCRASQSIISYVNWYQQKPGKAPKLLIYAATSRHSGVPSRFSGSGSGTDFTLTISSLQPEDFATYYCQQSYNLPLTFGGGTKVEIK	OD	3.59

Data provenance is patent US20210380703A1.
